# Lookup of reported IC50 at 96 h keyed by entry
- assay.method.text: Compound toxicity, MTS/Alamar Blue proliferation assay, LNCaP
- Type: cell-based
- settings: human, LNCaP (AR+) prostate cancer cells; read-out: Cytotoxicity IC50 (µM) LNCaP (AR+)
Kindly answer with a numeric value in µM, unit omitted.

Example entries begin here.
>  <molecule>
CC(=O)N1Cc2ccccc2CSc2ccccc21

>  <readout.type>
IC50 at 96 h

>  <measured.value>
19.4

$$$$
>  <molecule>
CC(=O)N1CCCC(Nc2ccccc2Oc2ccc(Cl)cc2)c2ccccc21 (stereo not shown)

>  <readout.type>
IC50 at 96 h

>  <measured.value>
15.7

$$$$
>  <molecule>
CC(=O)N1CCC(CC(=O)N2CCN(C(c3ccc(Cl)cc3)c3ccc(Cl)cc3)C[C@@H]2C(C)(C)C)CC1

>  <readout.type>
IC50 at 96 h

>  <measured.value>
5.5

$$$$

Continue with the molecule presented below.
Challenge: What measured IC50 at 96 h goes with CC(=O)Nc1ccccc1C(C)Nc1ccccc1Oc1ccc(Cl)cc1 (stereo not shown) ?
Response given: 14.6

====

- target.desc: 17β-HSD3 (Homo sapiens, UniProt P37058)
- Construct: expressed in transfected cells; host or cells: human 293-EBNA cells, stably transfected
- assay.method.text: Assay for 17β-HSD3 activity (TLC assay) in 293-EBNA cells stably transfected with 17β-HSD3
- Type: cell-based

>  <compound>
CC(=O)Nc1ccccc1CN(C(C)=O)c1ccccc1Oc1ccc(Cl)cc1 [Compound 17]

>  <17β-HSD3 inhibitory activity in words>
inactive

$$$$
>  <compound>
CC(=O)Nc1ccc(CNc2ccccc2Oc2ccc(Cl)cc2Cl)cc1 [Compound 19]

>  <17β-HSD3 inhibitory activity in words>
inactive

$$$$
>  <compound>
CC(=O)Nc1ccccc1CN(C)c1ccccc1Oc1ccc(Cl)cc1 [Compound 16]

>  <17β-HSD3 inhibitory activity in words>
inactive

$$$$

====

- assay.method.text: Compound toxicity, MTS/Alamar Blue proliferation assay, PC-3
- Type: cell-based
- settings: human, PC-3 (AR-) prostate cancer cells; PC3 (AR-); read-out: Cytotoxicity IC50 (µM) PC3 (AR-)
# Lookup of reported IC50 at 96 h keyed by entry

Example entries begin here.
>  <molecule>
CC(=O)N1Cc2ccccc2CSc2ccccc21

>  <IC50 at 96 h>
> 50 µM

$$$$
>  <molecule>
CC(=O)N1CCCC(Nc2ccccc2Oc2ccc(Cl)cc2)c2ccccc21 (stereo not shown)

>  <IC50 at 96 h>
22 µM

$$$$
>  <molecule>
CC(=O)Nc1ccccc1C(C)Nc1ccccc1Oc1ccc(Cl)cc1 (stereo not shown)

>  <IC50 at 96 h>
18.3 µM

$$$$

Continue with the molecule presented below.
Challenge: What measured IC50 at 96 h goes with CC(=O)N1CCC(CC(=O)N2CCN(C(c3ccc(Cl)cc3)c3ccc(Cl)cc3)C[C@@H]2C(C)(C)C)CC1 ?
Response given: 6.8 µM

====

# Lookup of reported pIC50 keyed by entry
- target.desc: 17β-HSD3 (Homo sapiens)
- Construct: expressed in transfected cells; host or cells: human 293-EBNA cells, stably transfected
- assay.method.text: Assay for 17β-HSD3 activity (TLC assay) in 293-EBNA cells stably transfected with 17β-HSD3
- Format: cell-based
- settings: TLC assay, 293-EBNA[HSD3] cells; read-out: IC50 (17β-HSD3)
// pIC50 is dimensionless: -log10 of concentration (M)

Example entries begin here.
>  <compound>
C=CC[C@H](Nc1ccccc1Oc1ccc(Cl)cc1)c1ccccc1NC(C)=O

>  <pIC50>
6.43

$$$$
>  <compound>
CC(=O)Nc1ccccc1C(C)Nc1ccccc1Oc1ccc(Cl)cc1 (centres unmarked)

>  <pIC50>
7.12

$$$$

Challenge: What measured pIC50 goes with CC(=O)Nc1ccc(Cl)cc1CNc1ccccc1Oc1ccc(Cl)cc1 ?
Response given: 5.72

Challenge: What measured pIC50 goes with CC(=O)Nc1ccccc1CNc1ccccc1Oc1ccc(Cl)cc1 ?
Response given: 6.05

Challenge: What measured pIC50 goes with CC(=O)Nc1cc2c(cc1CNc1ccccc1Oc1ccc(Cl)cc1)OCO2 ?
Response given: 6.35

Challenge: What measured pIC50 goes with CC(=O)N1CCCC(Nc2ccccc2Oc2ccc(Cl)cc2)c2ccccc21 (centres unmarked) ?
Response given: 6.70

Challenge: What measured pIC50 goes with CC(=O)N1CCC(C(=O)Nc2cccc(CNc3ccccc3Oc3ccc(Cl)cc3)c2)CC1 ?
Response given: 5.96

Challenge: What measured pIC50 goes with CCCC(Nc1ccccc1Oc1ccc(Cl)cc1)c1ccccc1NC(C)=O (centres unmarked) ?
Response given: 6.43

Challenge: What measured pIC50 goes with CC(=O)N1CCC(C(=O)Nc2ccccc2CNc2ccccc2Oc2ccc(Cl)cc2)CC1 ?
Response given: 5.41

Challenge: What measured pIC50 goes with CC(=O)N(C)c1ccccc1CNc1ccccc1Oc1ccc(Cl)cc1 ?
Response given: 6.34

Challenge: What measured pIC50 goes with C=CCC(Nc1ccccc1Oc1ccc(Cl)cc1)c1ccccc1NC(C)=O (centres unmarked) ?
Response given: 6.28

====

- target.desc: 17β-HSD3 (Homo sapiens)
- Construct: expressed in transfected cells; host or cells: human 293-EBNA cells, stably transfected
- assay.method.text: Assay for 17β-HSD3 activity (TLC assay) in 293-EBNA cells stably transfected with 17β-HSD3
- Format: cell-based
- settings: Table 10; read-out: Inhibition of 17β-HSD Type 3 (IC50 nM)
readout.type: IC50 (nM)
Kindly answer with a numeric value in nM, unit omitted.

Challenge: What measured IC50 goes with CC(=O)N1CCC(CC(=O)N2CCN(C(c3ccc(Cl)cc3)c3ccc(Cl)cc3)C[C@@H]2C(C)(C)C)CC1 ?
Response given: 5

====

# Lookup of reported melting point keyed by entry

>  <compound>
CC(=O)N1CCC(C(=O)Nc2ccccc2CNc2ccccc2Oc2ccc(Cl)cc2)CC1 [Compound 23]

>  <readout.type>
melting point

>  <measured.value>
140 to 143 °C

$$$$
>  <compound>
COc1cc(CNc2ccccc2Oc2ccc(Cl)cc2)c(NC(C)=O)cc1OC [Compound 5]

>  <readout.type>
melting point

>  <measured.value>
117 to 118 °C

$$$$
>  <compound>
CC(=O)Nc1cc2c(cc1CNc1ccccc1Oc1ccc(Cl)cc1)OCO2 [Compound 4]

>  <readout.type>
melting point

>  <measured.value>
154 to 156 °C

$$$$

Challenge: What measured melting point goes with CC(=O)Nc1ccccc1CNc1ccccc1Oc1ccc(Cl)cc1 [Compound 1] ?
Response given: 194 to 196 °C

Challenge: What measured melting point goes with CC(=O)Nc1cccc(CNc2ccccc2Oc2ccc(Cl)cc2)c1 [Compound 20] ?
Response given: 187 to 190 °C

====

- target.desc: 17β-HSD3 (Homo sapiens)
- Construct: expressed in transfected cells; host or cells: human 293-EBNA cells, stably transfected
- Sequence (P37058 1-310): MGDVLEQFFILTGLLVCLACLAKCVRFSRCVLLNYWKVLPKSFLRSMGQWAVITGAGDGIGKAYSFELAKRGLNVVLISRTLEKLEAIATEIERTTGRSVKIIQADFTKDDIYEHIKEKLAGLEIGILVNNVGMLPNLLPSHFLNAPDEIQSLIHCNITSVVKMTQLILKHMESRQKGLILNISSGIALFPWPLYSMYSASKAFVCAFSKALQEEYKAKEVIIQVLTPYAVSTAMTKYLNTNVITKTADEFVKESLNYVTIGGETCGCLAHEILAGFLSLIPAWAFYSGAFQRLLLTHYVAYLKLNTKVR
- assay.method.text: Assay for 17β-HSD3 activity (TLC assay) in 293-EBNA cells stably transfected with 17β-HSD3
- Type: cell-based
- settings: Table 11; read-out: HSD3 Activity (IC50 nM)
readout.type: IC50
Note: state the figure and append the unit.

Challenge: What measured IC50 goes with CC(=O)N1Cc2ccccc2CSc2ccccc21 [BMS Dibenzazocine] ?
Response given: 8.6 nM

====

- target.desc: 17β-HSD3 (Homo sapiens, UniProt P37058)
- Construct: expressed in transfected cells; host or cells: human 293-EBNA cells, stably transfected
- assay.method.text: Assay for 17β-HSD3 activity (TLC assay) in 293-EBNA cells stably transfected with 17β-HSD3
- Type: cell-based
- settings: 293-EBNA, 10 μM; TLC assay; mean of at least two measurements, typically SD ±5%
# Lookup of reported inhibition at 10 µM keyed by entry

Example entries begin here.
>  <molecule>
CC(=O)Nc1ccc(CNc2ccccc2Oc2ccc(Cl)cc2Cl)cc1

>  <measured.value>
< 20%

$$$$
>  <molecule>
CC(=O)Nc1ccc(C)cc1CNc1ccccc1Oc1ccc(Cl)cc1

>  <measured.value>
60 to 70%

$$$$
>  <molecule>
CC(=O)Nc1ccccc1C(Cc1ccccc1)Nc1ccccc1Oc1ccc(Cl)cc1 (stereo not drawn)

>  <measured.value>
< 20%

$$$$
>  <molecule>
CC(=O)N1CCC(Nc2ccccc2CN(C(C)=O)c2ccccc2Oc2ccc(Cl)cc2)CC1

>  <measured.value>
55%

$$$$
>  <molecule>
CC(=O)N1CCC(C(=O)Nc2ccccc2CNc2ccccc2Oc2ccc(Cl)cc2)CC1

>  <measured.value>
91%

$$$$

Challenge: What measured inhibition at 10 µM goes with CC(=O)Nc1ccccc1CN(C)c1ccccc1Oc1ccc(Cl)cc1 ?
Response given: < 20%

Challenge: What measured inhibition at 10 µM goes with C=CCC(Nc1ccccc1Oc1ccc(Cl)cc1)c1ccccc1NC(C)=O (stereo not drawn) ?
Response given: 20 to 60%

Challenge: What measured inhibition at 10 µM goes with CC(=O)Nc1c(CNc2ccccc2Oc2ccc(Cl)cc2)ccc2ccccc12 ?
Response given: < 20%

Challenge: What measured inhibition at 10 µM goes with CC(=O)Nc1cc2c(cc1CNc1ccccc1Oc1ccc(Cl)cc1)OCO2 ?
Response given: 86%
